- TARGET_OR_TEST_SYSTEM: Human CD47/Biotinylated (human, UniProt Q08722 19-139, limits assumed, biotinylated (site not stated))
- Sequence (Q08722 19-139 limits assumed): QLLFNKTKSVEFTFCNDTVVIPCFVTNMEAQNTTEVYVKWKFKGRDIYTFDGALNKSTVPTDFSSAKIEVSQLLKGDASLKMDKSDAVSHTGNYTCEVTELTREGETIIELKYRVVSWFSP
- ASSAY_PROCEDURE: BLI-type kinetics, biotinylated human CD47 captured on SA probes, antibody at 73.5-588.2 nM
pKd: −log10 of the molar value.
MEASURE: pKd

BINDER	pKd
CD47单域抗体 SEQ ID NO: 4 (VHH, His-tagged sdAb from pSJF2 in E. coli (Ni purification, anti-His detection); also called CD47纳米抗体) VHH: DVQLVESGGGSVQPGGSLTLSCAASGFTVSNYSMRWYRQAPGKERELIARITSTGVPIEYADSVKGRFTISRDNAKNTLYLEMNGLKPEDTAVYYCWGAAYWGQGTQVTVSS	> 9.00

QUERY: Name the reported pKd value associated with the binder CD47单域抗体 SEQ ID NO: 2 (VHH, His-tagged sdAb from pSJF2 in E. coli (Ni purification, anti-His detection); also called CD47纳米抗体) VHH: QVKLEESGGGLVQPGESLRLSCVASGFAFSSALMRWYRQAPGKERELVASITTAGGITGYADSVKGRFTISRDNAENTLYLQMNSLKPEDTAVYYCRAYGFQLDNWGQGTQVTVSS
RESULT: > 9.00
